Test system: A549 NSCLC
Experiment: NCI tumour cell line growth inhibition, 48 h
ATTRIBUTE MEASURED: TGI

See these solved cases before continuing.
[[record]]
compound = "CN(C)CCOc1ccc(C(=O)C2[C@H](c3ccc(Cl)cc3)[C@@H](c3ccccc3)NC23C(=O)Nc2ccc(Br)cc23)cc1 (some centres undefined)"
result = "4.85 µM"

[[record]]
compound = "Cn1cc(-c2cc3nc(-c4cn(C)c5ncccc45)cc(N)n3n2)c2cc(F)ccc21"
result = "> 100 µM"

[[record]]
compound = "O=C1NC(=S)S/C1=C\\c1cn(-c2ccccc2)nc1-c1ccc([N+](=O)[O-])cc1"
result = "25.3 µM"


Could you now look at the following compound, please?
Exercise: Which TGI value belongs to CN(C)c1nc(NCCNS(=O)(=O)c2ccc(C(=O)/C=C/c3ccccc3)cc2)nc(N2CCOCC2)n1 ?
Key: 28.3 µM

----------
System: HS 578T breast
Experiment: NCI tumour cell line growth inhibition, 48 h
I'd appreciate it if you could supply TGI values for the items below.
Answers are plain numbers, in µM.

Would you mind listing TGI for each of the following compounds?
1. CN1CCN(C(=O)Oc2cc3c(c4ccccc24)[C@H](CCl)CN3C(=O)c2cc3cc(OCCCN4CCC4)ccc3[nH]2)[C@@H]2CSSC[C@H]21
2. CN(C)CCOc1ccc(C(=O)C2[C@H](c3ccc(Cl)cc3)[C@@H](c3ccccc3)NC23C(=O)Nc2ccc(Br)cc23)cc1 (some centres undefined)
3. CN(C)c1nc(NCCNS(=O)(=O)c2ccc(C(=O)/C=C/c3ccccc3)cc2)nc(N2CCOCC2)n1
4. O=C1NC(=S)S/C1=C\c1cn(-c2ccccc2)nc1-c1ccc([N+](=O)[O-])cc1

Key:
[0.124, 6.88, 64.4, 9.27]

----------
Tested on: MDA-MB-468 breast
Test: NCI tumour cell line growth inhibition, 48 h
ATTRIBUTE MEASURED: TGI

[[record]]
smiles_record = "Cc1[nH]c2ccccc2c1CCCO"
experimental_target = "MDA-MB-468 breast"
result = "> 100 µM"

[[record]]
smiles_record = "Cc1ccc(S(=O)(=O)c2c(COC(=O)c3cccc(C)c3)c(-c3ccccc3)nn2C)cc1"
experimental_target = "MDA-MB-468 breast"
result = "> 100 µM"


Could you now look at the following compound, please?
Exercise: Which TGI value belongs to Cn1ncnc1[C@H]1c2n[nH]c(=O)c3cc(F)cc(c23)N[C@@H]1c1ccc(F)cc1 ?
Key: > 100 µM

Provenance of the data: PubChem BioAssay (NCI)
